Target: Sodium-dependent dopamine transporter (Rattus norvegicus, UniProt P23977)
Sequence (P23977 whole entry): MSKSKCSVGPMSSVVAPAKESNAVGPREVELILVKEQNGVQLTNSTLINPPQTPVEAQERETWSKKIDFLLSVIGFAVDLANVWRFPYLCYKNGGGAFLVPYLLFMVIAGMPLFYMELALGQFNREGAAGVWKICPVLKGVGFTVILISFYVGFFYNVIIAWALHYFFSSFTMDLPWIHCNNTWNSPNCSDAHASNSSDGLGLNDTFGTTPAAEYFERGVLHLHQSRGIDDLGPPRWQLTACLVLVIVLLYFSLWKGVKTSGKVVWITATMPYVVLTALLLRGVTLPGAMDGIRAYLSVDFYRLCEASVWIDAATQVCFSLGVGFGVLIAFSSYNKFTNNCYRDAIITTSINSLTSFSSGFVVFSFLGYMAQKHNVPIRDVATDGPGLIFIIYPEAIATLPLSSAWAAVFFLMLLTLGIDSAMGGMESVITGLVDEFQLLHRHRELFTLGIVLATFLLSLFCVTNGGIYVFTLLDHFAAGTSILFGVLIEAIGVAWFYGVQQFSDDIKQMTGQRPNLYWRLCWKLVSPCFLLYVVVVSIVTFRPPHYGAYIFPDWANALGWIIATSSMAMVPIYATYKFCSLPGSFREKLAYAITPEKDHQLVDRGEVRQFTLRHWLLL
Readout Type: IC50 (µM)
Unit µM implied. Number only.

Exam item: # returns recorded IC50 (system: Sodium-dependent dopamine transporter (Rattus norvegicus, UniProt P23977)) for `COC(=O)[C@@H]1C2CC[C@H](C[C@@H]1c1ccccc1)N2C`
Marked response: 0.314

* * *

As shown below, each of these compounds has a reported log10(Ki) value.
Target: Sodium-dependent dopamine transporter (Rattus norvegicus, UniProt P23977)
Short version: log10 scale, Ki, µM.

The examples below pair each entry with its known result.
Exam item: I'd like to know its log10(Ki). The compound in question is COC(=O)C[C@@H]1C2C[C@H](C)C(C[C@@H]1Cc1ccccc1)N2C (stereo not given in full)
Marked response: -0.68

Exam item: Tell me the measured log10(Ki) of CCC1CC2C(CC(=O)OC)C(Cc3ccccc3)CC1N2C (stereo in doubt; 21c) , please.
Marked response: 0.49

Exam item: So what does the record say about log10(Ki) for CCCC[C@@H]1CC2[C@@H](CC(=O)OC)[C@@H](Cc3ccccc3)CC1N2C (stereo in doubt; 20e) ?
Marked response: 1.29

More entries:
Exam item: Return reported log10(Ki); argument: CC[C@@H]1CC2[C@@H](CC(=O)OC)[C@@H](Cc3ccccc3)CC1N2C (stereo in doubt; 20c)
Marked response: 0.06
